Experiment: Cytotoxicity against mouse AML12 cells assessed as reduction in cell viability after 72 hrs by RRA assay
Assay type: cell-based
Settings: AML12, 72 h
result_type: IC50 (µM)
Kindly provide the numeric value in µM only, without the unit symbol.

INPUT: Name the recorded IC50 for "C#CCOc1ccc(/C=C/C(=O)c2ccc(C(C)C)cc2)cc1OC" .
OUTPUT: 9.91

New cases:
INPUT: Name the recorded IC50 for "C#CCOc1ccc(/C=C/C(=O)c2cccc(C)c2)cc1OC" .
OUTPUT: 11.3

INPUT: Name the recorded IC50 for "C#CCOc1ccc(/C=C/C(=O)c2ccc(-n3ccnc3)cc2)cc1OC" .
OUTPUT: 12.7

INPUT: Name the recorded IC50 for "C#CCOc1ccc(/C=C/C(=O)c2ccc(OC)c(OC)c2)cc1OC" .
OUTPUT: 6.75

INPUT: Name the recorded IC50 for "C=CCc1cc(C(C)=O)ccc1OCC=C(C)C" .
OUTPUT: 18.1

----------
Test system: THP-1
Assay: Cytotoxicity against human THP-1 cells assessed as reduction in cell viability after 72 hrs by SRB assay
Assay type: functional, cell-based
Conditions: THP-1, 72 h
result_type: pIC50
The meaning of pIC50 here: minus log10 of the concentration in molar units.

INPUT: Name the recorded pIC50 for "C=CCOc1ccc(/C=C/C(=O)c2ccccc2C)cc1OC" .
OUTPUT: 5.32

----------
Tested on: CCRF-CEM
Assay: Cytotoxicity against human CCRF-CEM cells assessed as reduction in cell viability after 72 hrs by RRA assay
Assay type: functional, cell-based
result_type: IC50

Illustrative cases are given below, each with its answer.
INPUT: Name the recorded IC50 for "C#CCOc1ccc(/C=C/C(=O)c2ccn(C)c2)cc1OC" .
OUTPUT: > 50 µM

INPUT: Name the recorded IC50 for "C=CCOc1ccc(/C=C\C(=O)c2ccc(OCC=C(C)C)c(CC=C)c2)cc1OC" .
OUTPUT: > 50 µM

INPUT: Name the recorded IC50 for COc1cccc2c1C(=O)c1c(O)c3c(c(O)c1C2=O)C[C@@](O)(C(=O)CO)C[C@@H]3O[C@H]1C[C@H](N)[C@H](O)[C@H](C)O1 [DOXORUBICIN] .
OUTPUT: 0.02 µM

New cases:
INPUT: Name the recorded IC50 for "C#CCOc1ccc(C(CC(=O)c2cccc(C)c2)CC(=O)c2cccc(C)c2)cc1OC" .
OUTPUT: > 50 µM

INPUT: Name the recorded IC50 for "C#CCOc1ccc(C(CC(=O)c2cccc(Br)c2)CC(=O)c2cccc(Br)c2)cc1OC" .
OUTPUT: > 50 µM

INPUT: Name the recorded IC50 for "C#CCOc1ccc(C=O)cc1OC" .
OUTPUT: > 50 µM

INPUT: Name the recorded IC50 for "C#CCOc1ccc(/C=C/C(=O)c2ccc(C(C)C)cc2)cc1OC" .
OUTPUT: 11.8 µM

INPUT: Name the recorded IC50 for "C#CCOc1ccc(/C=C/C(=O)c2ccc(CC=C(C)C)cc2)cc1OC" .
OUTPUT: > 50 µM

INPUT: Name the recorded IC50 for "C#CCOc1ccc(/C=C/C(=O)c2ccc(OC)c(OC)c2)cc1OC" .
OUTPUT: 8.65 µM

INPUT: Name the recorded IC50 for "C=CCOc1ccc(/C=C/C(=O)c2ccc(OCC=C(C)C)c(CC=C)c2)cc1OC" .
OUTPUT: > 50 µM

----------
// values below are reported IC50
Experiment: Cytotoxicity against mouse AML12 cells assessed as reduction in cell viability after 72 hrs by RRA assay
Format: cell-based
Details: AML12, 72 h
Kindly provide the numeric value in µM only, without the unit symbol.

Illustrative cases are given below, each with its answer.
INPUT: Name the recorded IC50 for "C#CCOc1ccc(/C=C/C(=O)c2cccc(OC)c2)cc1OC" .
OUTPUT: 11.4

INPUT: Name the recorded IC50 for "C#CCOc1ccc(/C=C/C(=O)c2cccc(Br)c2)cc1OC" .
OUTPUT: 12.5

INPUT: Name the recorded IC50 for "COc1cccc2c1C(=O)c1c(O)c3c(c(O)c1C2=O)C[C@@](O)(C(=O)CO)C[C@@H]3O[C@H]1C[C@H](N)[C@H](O)[C@H](C)O1" .
OUTPUT: 52.9

INPUT: Name the recorded IC50 for "C#CCOc1ccc(/C=C/C(=O)c2ccccc2C)cc1OC" .
OUTPUT: 8.2

In the following, a different molecule is considered.
INPUT: Name the recorded IC50 for "C=CCOc1ccc(C=O)cc1OC" .
OUTPUT: 15.3
